# Test Target: T1, canine OX40L, full length membrane form, expressed on the cell surface (HEK293 or MEF cells stably … (canine (dog, beagle)))
# T1 construct: The same protein is used on HEK293 and on MEF cells; also called HEK-OX40L; OX40L expressing HEK293 cells
# T1 chain: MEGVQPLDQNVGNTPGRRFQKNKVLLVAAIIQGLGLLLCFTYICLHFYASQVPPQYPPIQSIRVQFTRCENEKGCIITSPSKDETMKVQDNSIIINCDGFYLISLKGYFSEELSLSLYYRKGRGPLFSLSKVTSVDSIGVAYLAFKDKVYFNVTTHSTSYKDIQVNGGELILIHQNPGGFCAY
# Experiment Description: flow cytometry titration on HEK cells expressing OX40L; Kd (EC50) from GeoMean vs concentration, Prism four parameter fit
Recorded Metric: Kd (nM)
Value expressed in nM; do not type the unit.

* PMX016 (antibody, V domains shown, Canine variable regions) VH: EVQLVESGGDLVKPGGSLRLSCVASGFTFSNYHMNWVRQAPGKGLQWVAYITSDGIVSSYADVVKGRFTISRDNAKNTLFLQMNSLRAEDTAVYYCASGLFLVVGGGTFWGQGTLVTVSS VL: SYVLTQLPSKNVTLKQPAHITCGGDNIGSKSVHWYQQKLGQAPVLIIYSDSSRPTGIPERFSGANSGNTATLTISGALAEDEADYYCQVWDSSAKASVFGGGTHLTVL | 37.4
* PMX013 (antibody, V domains shown, Canine variable regions) VH: ELTLQESGPGLVKPSQTLSLTCVVSGGSVTSSHYWNWIRQRPGRGLEWMGSWTGGTNYNPAFQGRISVTSDTAKNQFSLQLSSLTTEDTAVYYCARGGGYSGTWKDYYVMDYWGHGTSVIVSS VL: SYVLTQLPSKNVTLNQPAHITCGGDNLGSKSVHWYQQKLGQAPVLIIYFDTSRPTGIPERFSGANSGNTATLTISGALAEDEADYYCQVWDSSAKASVFGGGTHLTVL | 165
* PMX019 (antibody, V domains shown, Canine variable regions; also called PMX19) VH: EVQLVESGGDLVKPGGSLRLSCVASGFTFSSNYMSWIRQAPGKGLQWVSQISGDGIYTNYADAMKGRFTISRDNAKNTLYLQMNSLRDEDTALYYCATGIYPNAFGYWGQGTLVTVSS VL: SYVLTQLSSKNVTLKQPAHITCGGDNIGSKSVHWYQQKLGQAPVLIIYYDSSRPTGIPERFSGANSGNTATLTISGALAEDEADYYCQVWDSSANVFGGGTHLTVL | 4.49
* PMX017 (antibody, V domains shown, Canine variable regions) V domain 1: EVQLVESGGDLVKPGGSLRLSCVASGFTFSSYHMSWVRQAPGKGLQWVAYIASGGTVTTYADAVRGRFTISRDNAKNMLYLQMNSLRAEDSAVYYCTRWKGGTFGYGMDYWGHGTSLFVSS V domain 2: SYVLTQLPSKNVTLKQPAHITCGGDNIGSKSVHWYQQKLGQAPVLIIYYDNNRPAGIPERFSGANSGNTATLTISGALAEDEADYYCQVWDSSAKASVFGGGTHLTVL | 30
* PMX018 (antibody, V domains shown, Canine variable regions) VH: EVQLVESGGDLVKPGGSLRLSCVASGFTFSNYHMNWVRQAPGKGLQWVAYITNDGIVSSYADAVKGRFTISRDNAKNTLYLQMNSLRVEDTAVYYCASGLFLVVGGGTFWGQGTLVTVSS VL: SYVLTQLPSKNVTLKQPAHITCGGDNIGSKSVHWYQHKLGQAPVLIIYYDSSRPTGIPERFSGANSGNTATLTISGALAEDEADYYCQVWDSSAKASVFGGGTHLTVL | 23.6
* PMX012 (antibody, V domains shown, Canine variable regions from Ky9 mice; human kappa or canine kappa/lambda light constant) VH: EVQLVESGGDLVKPGGSLRLACVTSGFTFSSYHMNWVRQAPGKGLQWVAYINTGGTVTTYADAMNADAVRGRFTISRDNVKNTLYLQMNRLRAEDTAVYYCARGYGVFDYWGQGTLVTVSP VL: SYVLTQLPSKNVTLKQPAHITCGGDNIGSKSVHWYQQKLGQAPVLIIYYDSRRPTGIPERFSGANSGNTATLTISGALAEDEADYYCQVWDNSDRASWVFGEGTQLTVL | 3
* PMX020 (antibody, V domains shown, Canine variable regions) VH: EVQLVESGGDLVKPGGSLRISCVASGFTFSSYHMNWVRQAPGKGLQWVAHISSGGTFTSYADAVKGRFTISRDNAKNTLYLQMISLRAEDTAVYYCASGLFLVVGGGNYWGRGTLVTVSS VL: SYVLTQLPSKNVTLKQPAHITCGGDNIGSKSVHWYQQKLGQAPVLIIYSDSSRPTGIPERFSGANSGNTATLTISGALAEDEADYYCQVWDSSASVFGGGTHLTVL | 2.8

Let us examine a further case.
input: Kindly indicate its recorded Kd. Item: PMX014 (antibody, V domains shown, Canine variable regions) VH: EVQLVESGGDLVKPGGSLRLSCVASGFTFSNFHMSWVRQAPGKGLQWVAYINSGGFNINYEDAVRGRFTISRDNAKNTLYLQMNSLRAEDTAIYYCARDWDTHLDTNWFYYWGQGTLVTVSS VL: SYVLTQLPSKNVTLKQSAHITCRGDNIGSKSVHWYQQKLGQAPVLIIYYDSSRPTGIPERFSGANSGNTATLTISGALAEDEADYYCQVWDISAKASVFGGGTHLTVL
output: 5.12
